B1: MNAT1 (parent)
chain: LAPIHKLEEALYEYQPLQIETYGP

variants of: B1; experiment: protein stability index of a GFP-peptide fusion (GPS, HEK-293T) (PSI 1-6); higher = more stable; conditions: c terminus: a fixed tail appended;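 further: lentivirally expressed fusions sorted by FACS into six bins by GFP to DsRed ratio, PSI derived from sequencing read proportions per bin multiplied by bin number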
MEASURED ATTRIBUTE: protein stability index
Reply briefly: the number, and no unit.

Note protein stability index for the variant shown: P24D 1.95

Note protein stability index for the variant shown: K6H 1.97

Note protein stability index for the variant shown: E8G 2.02
